Data origin: ChEMBL document CHEMBL4325923

Consider the following compounds and their measured Ratio readings.
Biological target: ATP-dependent translocase ABCB1 (Homo sapiens)
Sequence (P08183 whole entry): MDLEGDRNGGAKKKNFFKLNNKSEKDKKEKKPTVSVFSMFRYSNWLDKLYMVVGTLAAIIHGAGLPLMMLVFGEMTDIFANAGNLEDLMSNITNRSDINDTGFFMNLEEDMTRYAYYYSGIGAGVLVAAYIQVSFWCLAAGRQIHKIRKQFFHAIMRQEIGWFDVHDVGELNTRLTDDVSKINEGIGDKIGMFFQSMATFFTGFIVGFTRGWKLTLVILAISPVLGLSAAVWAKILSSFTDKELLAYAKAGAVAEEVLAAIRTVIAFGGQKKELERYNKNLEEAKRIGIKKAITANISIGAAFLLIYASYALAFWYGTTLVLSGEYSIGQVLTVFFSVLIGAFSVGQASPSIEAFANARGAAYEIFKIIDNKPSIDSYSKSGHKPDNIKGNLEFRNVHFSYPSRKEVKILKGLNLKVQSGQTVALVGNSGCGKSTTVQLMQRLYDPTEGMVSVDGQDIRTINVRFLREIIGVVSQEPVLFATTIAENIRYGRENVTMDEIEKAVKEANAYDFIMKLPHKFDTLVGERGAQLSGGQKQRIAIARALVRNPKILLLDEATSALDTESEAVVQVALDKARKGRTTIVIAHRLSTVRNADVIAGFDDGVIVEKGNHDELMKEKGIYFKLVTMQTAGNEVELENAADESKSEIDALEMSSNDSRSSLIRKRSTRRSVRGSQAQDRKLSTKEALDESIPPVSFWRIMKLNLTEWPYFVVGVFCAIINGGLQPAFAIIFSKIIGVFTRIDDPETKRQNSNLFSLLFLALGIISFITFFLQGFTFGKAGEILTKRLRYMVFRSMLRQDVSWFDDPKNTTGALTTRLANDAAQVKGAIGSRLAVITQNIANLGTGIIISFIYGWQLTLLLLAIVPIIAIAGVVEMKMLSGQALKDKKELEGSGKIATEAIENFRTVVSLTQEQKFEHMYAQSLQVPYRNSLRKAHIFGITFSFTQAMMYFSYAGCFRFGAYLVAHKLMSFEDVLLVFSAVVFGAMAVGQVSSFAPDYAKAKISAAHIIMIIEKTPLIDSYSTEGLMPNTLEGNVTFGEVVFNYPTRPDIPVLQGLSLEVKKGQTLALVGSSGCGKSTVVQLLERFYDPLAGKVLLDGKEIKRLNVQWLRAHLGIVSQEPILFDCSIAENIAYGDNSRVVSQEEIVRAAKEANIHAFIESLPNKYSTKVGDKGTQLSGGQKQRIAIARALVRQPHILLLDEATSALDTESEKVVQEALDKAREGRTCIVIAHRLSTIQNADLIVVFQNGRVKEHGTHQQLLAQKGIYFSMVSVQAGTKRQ
Assay: Inhibition of P-gp-mediated doxorubicin efflux in human Lucena 1 cells assessed as ratio of doxorubicin fluorescence intensity in presence of compound to doxorubicin fluorescence intensity in absence of compound at 6.25 uM preincubated for 1 hr followed by doxorubicin addition measured after 1 hr by flow cytometry
Assay type: cell-based

See these solved cases before continuing.
{"Structure": "CC/C(=C(/CC)c1ccc(OCCO)cc1)c1ccc(OCCO)cc1", "Ratio": 1.08}
{"Structure": "CC/C(=C(/CC)c1ccc(OCCCCO)cc1)c1ccc(OCCCCO)cc1", "Ratio": 1.08}
{"Structure": "CC/C(=C(/CC)c1ccc(OCCCO)cc1)c1ccc(OCCCO)cc1", "Ratio": 1.09}
{"Structure": "CC/C(=C(/CC)c1ccc(OCCCCOC(C)=O)cc1)c1ccc(OCCCCOC(C)=O)cc1", "Ratio": 1.09}
{"Structure": "CC/C(=C(/CC)c1ccc(OC)cc1)c1ccc(OC)cc1", "Ratio": 1.09}

Ask: // fetch Ratio for `CC/C(=C(/CC)c1ccc(OCCCOC(C)=O)cc1)c1ccc(OCCCOC(C)=O)cc1` ; system: ATP-dependent translocase ABCB1 (Homo sapiens)
Result: 1.06

Ask: Given `CC/C(=C(/CC)c1ccc(O)cc1)c1ccc(O)cc1` , report its Ratio on ATP-dependent translocase ABCB1 (Homo sapiens).
Result: 1.04

Ask: Name the recorded Ratio of `CC/C(=C(/CC)c1ccc(OCCOC(C)=O)cc1)c1ccc(OCCOC(C)=O)cc1` , assay system ATP-dependent translocase ABCB1 (Homo sapiens).
Result: 1.12
